# viability, T/C annotations
# System: 556581-035-R-J1-PDC complex spheroid growth
# method-description: Anticancer human tumor 556581-035-R-J1-PDC patient-derived ovarian carcinoma cell line growth inhibition [Asc]
# measurement-conditions: second compound 0.316 µM; first compound 0.1 µM; stronger effect = lower value

compound	viability, T/C
C#Cc1c(F)ccc2cc(O)cc(-c3ncc4c(N5CC6CCC(C5)N6)nc(OCC56CCCN5CC(F)C6)nc4c3F)c12 (stereo not drawn) + Cc1c(S(C)(=O)=O)c(-c2cc(F)cc(N3CCN(c4ccc(NS(=O)(=O)c5ccc(NC(CCN6CCC(C(=O)OCCCP(=O)(O)O)CC6)CSc6ccccc6)c(S(=O)(=O)C(F)(F)F)c5)cc4)CC3)c2)c(-c2ccc(Cl)cc2)n1C(C)C	79.5%
COc1c(OCCCN2CCOCC2)ccc2c3n(c(=NC(=O)c4cnc(N)nc4)nc12)CCN3 + CNC(C)C(=O)NC1CN(S(=O)(=O)c2cccc(S(=O)(=O)N3CCC4CCC(C(=O)NC(c5ccccc5)c5ccccc5)N4C(=O)C(NC(=O)C(C)NC)C3)c2)CCC2CCC(C(=O)NC(c3ccccc3)c3ccccc3)N2C1=O	27.5%
CCN1CCN(Cc2ccc(Nc3ncc(F)c(-c4cc(F)c5nc(C)n(C(C)C)c5c4)n3)nc2)CC1 + CNC(C)C(=O)NC1CN(S(=O)(=O)c2cccc(S(=O)(=O)N3CCC4CCC(C(=O)NC(c5ccccc5)c5ccccc5)N4C(=O)C(NC(=O)C(C)NC)C3)c2)CCC2CCC(C(=O)NC(c3ccccc3)c3ccccc3)N2C1=O	57.8%

###

# Tested on: 556581-035-R-J1-PDC complex spheroid growth
# method-description: Anticancer human tumor 556581-035-R-J1-PDC cell line growth inhibition [Asc];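 also: spheroids exposed to agents for 7 days before viability read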
# measurement-conditions: second compound 0.316 µM; first compound 10 µM; stronger effect = lower value
# viability, T/C annotations

molecule	viability, T/C / %
C#Cc1c(F)ccc2cc(O)cc(-c3ncc4c(N5CC6CCC(C5)N6)nc(OCC56CCCN5CC(F)C6)nc4c3F)c12 (configuration not stated) + CNC(C)C(=O)NC1CN(S(=O)(=O)c2cccc(S(=O)(=O)N3CCC4CCC(C(=O)NC(c5ccccc5)c5ccccc5)N4C(=O)C(NC(=O)C(C)NC)C3)c2)CCC2CCC(C(=O)NC(c3ccccc3)c3ccccc3)N2C1=O	44
C=CC(=O)N1CCN(c2nc(=O)n(-c3c(C)ccnc3C(C)C)c3nc(-c4c(O)cccc4F)c(F)cc23)C(C)C1 (configuration not stated) + CNC(C)C(=O)NC1CN(S(=O)(=O)c2cccc(S(=O)(=O)N3CCC4CCC(C(=O)NC(c5ccccc5)c5ccccc5)N4C(=O)C(NC(=O)C(C)NC)C3)c2)CCC2CCC(C(=O)NC(c3ccccc3)c3ccccc3)N2C1=O	81.4

###

# Tested on: 556581-035-R-J1-PDC complex spheroid growth
# method-description: Anticancer human tumor 556581-035-R-J1-PDC cell line growth inhibition [Asc];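 also: spheroids exposed to agents for 7 days before viability read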
# measurement-conditions: curve of first compound; second compound 0.0949 µM
# IC50 annotations

compound	IC50
COc1c(OCCCN2CCOCC2)ccc2c3n(c(=NC(=O)c4cnc(N)nc4)nc12)CCN3 + CCN1C(C(=O)NC23CCC(C(=O)O)(CC2)CC3)C(c2cccc(Cl)c2F)C2(C(=O)Nc3cc(Cl)ccc32)C12CCCCC2	42.7 nM
Cc1nc(N2CCC3(CC2)COC(C)C3N)c(CO)nc1Sc1ccnc(N)c1Cl (stereo not drawn) + CCN1C(C(=O)NC23CCC(C(=O)O)(CC2)CC3)C(c2cccc(Cl)c2F)C2(C(=O)Nc3cc(Cl)ccc32)C12CCCCC2	1530 nM
Cn1ncnc1[C@H]1c2n[nH]c(=O)c3cc(F)cc(c23)N[C@@H]1c1ccc(F)cc1 + CCN1C(C(=O)NC23CCC(C(=O)O)(CC2)CC3)C(c2cccc(Cl)c2F)C2(C(=O)Nc3cc(Cl)ccc32)C12CCCCC2	> 100 nM
